molecular target: Keap1 C38S (Homo sapiens, UniProt Q14145, C38S); construct: His (N); experiment: ITC titration of PBA with Keap1-C38S; settings: 25 ℃
Sequence (Q14145 whole entry C38S): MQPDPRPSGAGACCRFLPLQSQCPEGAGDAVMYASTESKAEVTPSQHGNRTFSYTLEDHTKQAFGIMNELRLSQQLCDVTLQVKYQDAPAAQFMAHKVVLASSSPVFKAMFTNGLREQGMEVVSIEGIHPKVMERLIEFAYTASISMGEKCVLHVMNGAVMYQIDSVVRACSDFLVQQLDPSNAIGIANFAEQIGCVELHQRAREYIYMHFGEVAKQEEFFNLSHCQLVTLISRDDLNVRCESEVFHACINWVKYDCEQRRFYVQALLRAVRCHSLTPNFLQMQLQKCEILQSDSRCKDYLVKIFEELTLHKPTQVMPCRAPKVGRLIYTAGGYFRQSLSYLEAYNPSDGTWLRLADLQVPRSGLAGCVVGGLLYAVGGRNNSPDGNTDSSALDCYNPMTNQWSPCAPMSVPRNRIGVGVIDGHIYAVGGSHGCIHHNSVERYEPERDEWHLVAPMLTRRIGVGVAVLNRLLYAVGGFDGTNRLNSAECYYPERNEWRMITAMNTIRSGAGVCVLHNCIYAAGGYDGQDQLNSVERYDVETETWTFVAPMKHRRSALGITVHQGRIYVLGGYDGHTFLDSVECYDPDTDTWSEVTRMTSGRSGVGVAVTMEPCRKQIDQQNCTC
pKd: −log10 of the molar value.
property_label: pKd

compound	tested_target	property_label	observed_measurement
C=C(COC(=O)C=Cc1ccc(O)c(O)c1)C(O)COC1OC(CO)C(O)C(O)C1O (stereo not shown) [PBA, pubescenoside A]	Keap1 C38S (Homo sapiens, UniProt Q14145, C38S)	pKd	5.07

====

molecular target: Keap1 C434S (Homo sapiens, UniProt Q14145, C434S); construct: His (N); test: ITC titration of PBA with Keap1-C434S; settings: 25 ℃
Sequence (Q14145 whole entry C434S): as the sequence (Q14145 whole entry C38S) above, with S38C, C434S counted along it
property_label: Kd (µM)

compound	property_label	observed_measurement
C=C(COC(=O)C=Cc1ccc(O)c(O)c1)C(O)COC1OC(CO)C(O)C(O)C1O (stereo not shown) [PBA, pubescenoside A]	Kd	13.9

====

molecular target: Keap1 C226S (Homo sapiens, UniProt Q14145, C226S); construct: His (N); assay: ITC titration of PBA with Keap1-C226S; conditions: 25 ℃
Sequence (Q14145 whole entry C226S): as the sequence (Q14145 whole entry C38S) above, with S38C, C226S counted along it

compound	tested_target	Kd (µM)
C=C(COC(=O)C=Cc1ccc(O)c(O)c1)C(O)COC1OC(CO)C(O)C(O)C1O (stereo not shown) [PBA, pubescenoside A]	Keap1 C226S (Homo sapiens, UniProt Q14145, C226S)	8.12
